The values you see were collected from PubChem BioAssay (NCI).

# Tested on: ACHN renal
# ASSAY TEXT: NCI tumour cell line growth inhibition, 48 h
PROPERTY NAME: TGI (µM)
A number alone suffices; assume µM.

Data request: Form field: reported TGI of CC1(C)[C@@H]2C[C@H]1C(Cc1ccccc1C[C@H]1c3cc(-c4ccccn4)ncc3[C@H]3C[C@@H]1C3(C)C)c1cc(-c3ccccn3)ncc12 (some centres not stated)
Data returned: 4.83

Data request: Cool, now O=C(/C=C/c1ccccc1)c1ccc(O)c(CN2CCN(c3cc4c(cc3F)c(=O)c(C(=O)O)cn4C3CC3)CC2)c1
Data returned: 13.9

Data request: # repeat for C=C(C)[C@@H]1CC[C@]2(C)[C@H](CC=C3[C@@H]4CC(C)(C)CC[C@]4(C(=O)OC)CC[C@]32C)[C@@]1(C)CC/C(N)=N/O
Data returned: 5.81

Data request: Likewise for CC(=O)OC1C(O)COC(Oc2c(C)c3c4c(c2O)[C@@H](C)CC[C@@H]4[C@@H](C)C[C@H]3C=C(C)C)C1O (some centres not stated) ?
Data returned: 42.5

Data request: Could you do the same for CCOC(=O)C1=C(C)N(Cc2ccc(Cl)cc2Cl)C2(O)C(OC)CC(=O)C3C(=O)N(c4ccccc4)C(=O)C132 (configuration not stated) , please?
Data returned: 15.2
